- Study System: T1, ParB 65-139 (RHH domain) (Leifsonia xyli subsp. cynodontis …, UniProt Q6EEF9 65-139)
- T1 sequence: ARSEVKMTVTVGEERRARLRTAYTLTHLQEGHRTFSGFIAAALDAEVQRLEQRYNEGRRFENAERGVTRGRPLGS
- Assay Info: EMSA

Binder | binding result
R4-18+3 (dsDNA) DNA 1: AAAGCCAGAAACAGTGGG DNA 2: CCCACTGTTTCTGGCTTT | binds
R4-18-3 (dsDNA) DNA 1: GGTGGAAAAGCCAGAAAC DNA 2: GTTTCTGGCTTTTCCACC | binds
R4-18+4 (dsDNA) DNA 1: AAGCCAGAAACAGTGGGA DNA 2: TCCCACTGTTTCTGGCTT | binds
R4-18-2 (dsDNA) DNA 1: GTGGAAAAGCCAGAAACA DNA 2: TGTTTCTGGCTTTTCCAC | binds
